Documented %R_avg across a set of molecules
# MEASUREMENT_SETUP: PAMPA, 10 µM, pH 7.4
Positions of bridges follow the written chain, without caps; N, C: chain ends. Non-standard residues stand in square brackets, D forms with d. Residues, ends and D or L forms follow the SMILES beside them. Cha = N[C@@H](CC1CCCCC1)C(=O)O; NMeNva = CCC[C@H](NC)C(=O)O; NMeAbu = CC[C@H](NC)C(=O)O; NMeC = CN[C@@H](CS)C(=O)O; NMeA = CN[C@@H](C)C(=O)O; Nva = CCC[C@H](N)C(=O)O; Abu = CC[C@H](N)C(=O)O; NPrGly = CCCNCC(=O)O; NEtG = CCNCC(=O)O
Supply the numeric figure in %, leaving out any unit text.

Some solved cases for reference:
| MOLECULE | READOUT_UNIT | OBSERVED_RESULT |
| --- | --- | --- |
| CCOC(=O)[C@@H]1CSCC(=O)N[C@@H](CC(C)C)C(=O)N(C)[C@@H](C)C(=O)N[C@@H](CC(C)C)C(=O)N2CCC[C@@H]2C(=O)N(C)[C@@H](CC)C(=O)N[C@@H](CC(C)C)C(=O)N(C)[C@@H](C)C(=O)N[C@@H](CC(C)C)C(=O)N1C [LC06] ({CH2CO}-L[NMeA]L[dP][NMeAbu]L[NMeA]L[NMeC]-OEt; thioether N-9) | % | 4.6 |
| CCC[C@@H]1NC(=O)[C@H](C)N(C)C(=O)[C@H](CC(C)C)NC(=O)CSC[C@@H](C(=O)OCC)N(C)C(=O)[C@H](CC(C)C)NC(=O)[C@H](C)N(C)C(=O)[C@H](CC(C)C)NC(=O)[C@H](CCC)N(C)C(=O)[C@H]2CCCN2C1=O [LC07] ({CH2CO}-L[NMeA][Nva][dP][NMeNva]L[NMeA]L[NMeC]-OEt; thioether N-9) | % | 4.5 |
| CCC[C@H]1C(=O)N[C@@H](CC)C(=O)N(C)[C@@H](C)C(=O)N[C@@H](CC(C)C)C(=O)N(C)[C@H](C(=O)OCC)CSCC(=O)N[C@@H](CC(C)C)C(=O)N(C)[C@@H](C)C(=O)N[C@@H](CC(C)C)C(=O)N2CCC[C@@H]2C(=O)N1C [LC04] ({CH2CO}-L[NMeA]L[dP][NMeNva][Abu][NMeA]L[NMeC]-OEt; thioether N-9) | % | 11.2 |
| CCC[C@@H]1NC(=O)[C@H](C)N(C)C(=O)[C@H](CC(C)C)NC(=O)CSC[C@@H](C(=O)OCC)N(C)C(=O)[C@H](CC(C)C)NC(=O)[C@H](C)N(C)C(=O)[C@H](CC(C)C)NC(=O)[C@H](CC)N(C)C(=O)[C@H]2CCCN2C1=O [LC05] ({CH2CO}-L[NMeA][Nva][dP][NMeAbu]L[NMeA]L[NMeC]-OEt; thioether N-9) | % | 7.6 |
| CCOC(=O)[C@@H]1CSCC(=O)N[C@@H](CC(C)C)C(=O)N(C)[C@@H](C)C(=O)N[C@@H](CC(C)C)C(=O)N2CCC[C@@H]2C(=O)N(CC)CC(=O)N[C@@H](CC)C(=O)N(C)[C@@H](C)C(=O)N[C@@H](CC(C)C)C(=O)N1C [LA02] ({CH2CO}-L[NMeA]L[dP][NEtG][Abu][NMeA]L[NMeC]-OEt; thioether N-9) | % | 17.1 |
| CCC[C@@H]1NC(=O)[C@H](C)N(C)C(=O)[C@H](CC(C)C)NC(=O)CSC[C@@H](C(=O)OCC)N(C)C(=O)[C@H](CC(C)C)NC(=O)[C@H](C)N(C)C(=O)[C@H](CC)NC(=O)CN(CCC)C(=O)[C@H]2CCCN2C1=O [LA03] ({CH2CO}-L[NMeA][Nva][dP][NPrGly][Abu][NMeA]L[NMeC]-OEt; thioether N-9) | % | 25.8 |

Query: Report %R_avg, nothing else, for this molecule: CCC[C@@H]1NC(=O)[C@H](C)N(C)C(=O)[C@H](CC(C)C)NC(=O)CSC[C@@H](C(=O)OCC)N(C)C(=O)[C@H](CC(C)C)NC(=O)[C@H](C)N(C)C(=O)[C@H](CC)NC(=O)[C@H](CC)N(C)C(=O)[C@H]2CCCN2C1=O [LC01] ({CH2CO}-L[NMeA][Nva][dP][NMeAbu][Abu][NMeA]L[NMeC]-OEt; thioether N-9)
Reply: 30.1

Query: Report %R_avg, nothing else, for this molecule: CCC[C@@H]1NC(=O)[C@H](C)N(C)C(=O)[C@H](CC(C)C)NC(=O)CSC[C@@H](C(=O)OCC)N(C)C(=O)[C@H](CC(C)C)NC(=O)[C@H](C)N(C)C(=O)[C@H](CC(C)C)NC(=O)CN(CCC)C(=O)[C@H]2CCCN2C1=O [LA07] ({CH2CO}-L[NMeA][Nva][dP][NPrGly]L[NMeA]L[NMeC]-OEt; thioether N-9)
Reply: 6.6

Query: Report %R_avg, nothing else, for this molecule: CCC[C@@H]1NC(=O)[C@H](C)N(C)C(=O)[C@H](CC(C)C)NC(=O)CSC[C@@H](C(=O)OCC)N(C)C(=O)[C@H](CC(C)C)NC(=O)[C@H](C)N(C)C(=O)[C@H](CC2CCCCC2)NC(=O)CN(CC)C(=O)[C@H]2CCCN2C1=O [LA09] ({CH2CO}-L[NMeA][Nva][dP][NEtG][Cha][NMeA]L[NMeC]-OEt; thioether N-9)
Reply: 7.5

Query: Report %R_avg, nothing else, for this molecule: CCOC(=O)[C@@H]1CSCC(=O)N[C@@H](CC(C)C)C(=O)N(C)[C@@H](C)C(=O)N[C@@H](CC(C)C)C(=O)N2CCC[C@@H]2C(=O)N(CC)CC(=O)N[C@@H](CC2CCCCC2)C(=O)N(C)[C@@H](C)C(=O)N[C@@H](CC(C)C)C(=O)N1C [LA10] ({CH2CO}-L[NMeA]L[dP][NEtG][Cha][NMeA]L[NMeC]-OEt; thioether N-9)
Reply: 13.0

Query: Report %R_avg, nothing else, for this molecule: CCOC(=O)[C@@H]1CSCC(=O)N[C@@H](CC(C)C)C(=O)N(CC)CC(=O)N[C@@H](CC(C)C)C(=O)N2CCC[C@@H]2C(=O)N(C)[C@@H](C)C(=O)N[C@@H](CC)C(=O)N(C)[C@@H](C)C(=O)N[C@@H](CC(C)C)C(=O)N1C [LB02] ({CH2CO}-L[NEtG]L[dP][NMeA][Abu][NMeA]L[NMeC]-OEt; thioether N-9)
Reply: 51.1

Query: Report %R_avg, nothing else, for this molecule: CCOC(=O)[C@@H]1CSCC(=O)N[C@@H](CC(C)C)C(=O)N(C)[C@@H](C)C(=O)N[C@@H](CC(C)C)C(=O)N2CCC[C@@H]2C(=O)N(C)[C@@H](CC)C(=O)N[C@@H](CC2CCCCC2)C(=O)N(C)[C@@H](C)C(=O)N[C@@H](CC(C)C)C(=O)N1C [LC10] ({CH2CO}-L[NMeA]L[dP][NMeAbu][Cha][NMeA]L[NMeC]-OEt; thioether N-9)
Reply: 10.5
